- MEASURED_ON: human TLR2 (Pam3CSK4, TLR1/2 agonist) in HEK-Blue hTLR2 cells (Homo sapiens)
- Construct: host or cells: HEK-Blue hTLR2 (HEK-293)
- Sequence (O60603 19-784 limits assumed): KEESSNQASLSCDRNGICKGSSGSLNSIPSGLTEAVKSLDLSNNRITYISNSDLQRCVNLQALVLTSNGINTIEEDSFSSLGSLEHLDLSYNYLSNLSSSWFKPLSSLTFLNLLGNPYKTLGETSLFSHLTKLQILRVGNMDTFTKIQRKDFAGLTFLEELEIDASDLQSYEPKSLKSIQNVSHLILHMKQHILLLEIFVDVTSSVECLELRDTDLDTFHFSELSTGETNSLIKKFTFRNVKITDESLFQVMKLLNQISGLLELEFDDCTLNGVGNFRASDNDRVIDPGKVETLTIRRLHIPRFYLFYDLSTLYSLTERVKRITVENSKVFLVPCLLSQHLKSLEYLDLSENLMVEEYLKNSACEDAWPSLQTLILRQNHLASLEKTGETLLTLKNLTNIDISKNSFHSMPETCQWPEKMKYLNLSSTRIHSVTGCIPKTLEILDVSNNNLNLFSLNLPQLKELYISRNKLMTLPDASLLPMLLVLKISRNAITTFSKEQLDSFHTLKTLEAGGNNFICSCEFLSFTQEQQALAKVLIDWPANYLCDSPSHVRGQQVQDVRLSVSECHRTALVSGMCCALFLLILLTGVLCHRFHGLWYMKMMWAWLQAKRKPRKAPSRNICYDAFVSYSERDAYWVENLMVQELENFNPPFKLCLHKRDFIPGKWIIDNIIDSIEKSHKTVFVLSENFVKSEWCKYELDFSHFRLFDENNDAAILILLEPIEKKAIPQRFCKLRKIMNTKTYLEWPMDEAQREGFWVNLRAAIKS
- PROCEDURE_DETAILS: HEK-Blue hTLR2 antagonism assay (SEAP reporter) with Pam3CSK4 as agonist
- Format: cell-based
- CONDITION_DETAILS: 2 h compound pre-incubation, approx. 3×EC50 Pam3CSK4, 18 h, SEAP OD 655 nm, background subtracted
ENDPOINT_LABEL: log10(IC50) (log10 of the value in µM)
Could you please treat all values as log10 of IC50 in µM?

// known answers, use as guide
COc1cc(/C=C/c2cccc(C(F)(F)F)c2)cc(C=O)c1O; 0.15
Oc1c(F)cc(/C=C/c2ccc(N3CCCC3)cc2)cc1/C=N/N1CCOCC1; 0.15
COc1cc(/C=C\c2ccc(N3CCCC3)cc2)cc(C=O)c1O; 1.85

Then there is this compound:
Ask: For the compound `COc1cc(/C=C/c2ccc(N3CCCC3)cc2)cc(C=O)c1O` , report log10(IC50).
Result: -0.22
